System: CAKI-1 renal
Assay: NCI tumour cell line growth inhibition, 48 h
*1 amine or outer side, *2 acyl side, *3 side chain or, on linkers, in order; H or OH if unused. Where a SMILES comes first, the peptide text is derived from it. Bridges are numbered along the chain shown (N, C = ends). [ ]: non-standard residue; d: D form. Adda = CO[C@@H](Cc1ccccc1)[C@@H](C)/C=C(C)/C=C/[C@H](N[*:1])[C@H](C)C(=O)[*:2]; dAsp(3S-Me) = C[C@H](C(=O)[*:3])[C@@H](N[*:1])C(=O)[*:2]; d(γGlu) = O=C(O)[C@@H](CCC(=O)[*:2])N[*:1]; NMeDha = C=C(NC)C(=O)O
Reported values of TGI for individual entries

Previously resolved entries follow.
compound: Cc1cc(C)c(S(=O)(=O)N2CCN(S(=O)(=O)c3c(C)cc(C)cc3C)OCCCCCO2)c(C)c1
TGI: > 100 µM

compound: O=C(O)CNC(=O)C(CS)Cc1ccccc1 (stereo unspecified)
TGI: > 25 µM

compound: O=C(c1cc(Cl)ccc1Cl)N1CCN(c2cccc(Cl)c2)CC1
TGI: > 100 µM

compound: O=C1C2C(C(=O)N1c1ccccc1)C1(Br)c3ccccc3C2(Br)C2C(=O)N(c3ccccc3)C(=O)C21 (stereo unspecified)
TGI: > 100 µM

compound: COC(=O)c1cc(OC(C)=O)c2c(OC)ccc(OC)c2c1
TGI: > 100 µM

Query :: GET /values?readout=TGI&item= O=C(CC1=Nc2nnc(CCCCCCCc3nnc4n3C(=O)C(CC(=O)c3ccccc3)=N4)n2C1=O)c1ccccc1
Result :: > 100 µM

Query :: What does the record list as TGI for CCOC(=O)C(=O)Nc1ccc(C)c(C)c1 ?
Result :: > 100 µM

Query :: # query: TGI of entry CCOC(=O)[C@H]1O[C@@H]1C(=O)N[C@@H](CC(C)C)C(=O)NCCc1ccc(O)cc1
Result :: > 100 µM

Query :: # get_value(readout='TGI', item= C=C1C(=O)N[C@H](C)C(=O)N[C@@H](CC(C)C)C(=O)N[C@@H](C(=O)O)[C@H](C)C(=O)N[C@@H](CCCN=C(N)N)C(=O)N[C@@H](/C=C/C(C)=C/[C@H](C)[C@H](Cc2ccccc2)OC)[C@H](C)C(=O)N[C@@H](C(=O)O)CCC(=O)N1C (R[Adda][d(γGlu)][NMeDha][dA]L[dAsp(3S-Me)]-OH; lactam N-7) )
Result :: > 5 µM

Query :: Field request: TGI | item: C=C1OC(=O)[C@]2([C@@H](/C=C/C)C=CC(=O)[C@H]2O)[C@@H]1O
Result :: > 100 µM

Query :: // query TGI value for entry CC(C)(C)C(=O)N(C(=S)OCc1ccccn1)c1ccccc1
Result :: > 100 µM

Query :: Quick one: TGI for O=c1[nH]c(=O)n(C2CC(O)C(CO)O2)c2nc3cc4ccccc4cc3nc12 (stereo unspecified) ?
Result :: > 100 µM
